The values you see were collected from paper PMC11359531.

Assay: Pharmacokinetic study of the Q-markers in beagle dogs
Details: beagle, dog, plasma, iv

{"Molecule": "COc1cc2c(cc1OC)[C@@H]1Cc3ccc(OC)c(OC)c3CN1CC2 [Tetrahydropalmatine, tetrahydropalmatine]", "Measurement units": "ng·h/mL", "AUC(0-inf)": 10.9}
{"Molecule": "COc1c2ccoc2c(OC[C@@H](O)C(C)(C)O)c2oc(=O)ccc12", "Measurement units": "ng·h/mL", "AUC(0-inf)": 11.7}
{"Molecule": "COc1cc2c(cc1OC)[C@H]1[C@@H](C)c3ccc(OC)c(OC)c3CN1CC2", "Measurement units": "ng·h/mL", "AUC(0-inf)": 7.18}
